System: NCI-H1651
TEST: relative viability (nuclei count vs DMSO), 5 days (fraction); higher = more cells survive
EXPERIMENTAL_CONTEXT: first compound 0.6325 µM
READOUT_KIND: relative viability

Some solved cases for reference:
COMPOUND	READOUT_KIND	MEASUREMENT
Cc1csc(=NC2CCCCC2)n1/N=C/c1ccc(O)c(O)c1O [MIM1] + CC(=O)c1c(C)c2cnc(Nc3ccc(N4CCNCC4)cn3)nc2n(C2CCCC2)c1=O [Palbociclib] (partner 0.5 µM)	relative viability	0.531
CN1CCN(CCOc2cc(OC3CCOCC3)c3c(Nc4c(Cl)ccc5c4OCO5)ncnc3c2)CC1 [Saracatinib] + CC(=O)Nc1cccc(-n2c(=O)n(C3CC3)c(=O)c3c(Nc4ccc(I)cc4F)n(C)c(=O)c(C)c32)c1 [Trametinib] (partner 0.02 µM)	relative viability	0.907
CN1CCN(CCOc2cc(OC3CCOCC3)c3c(Nc4c(Cl)ccc5c4OCO5)ncnc3c2)CC1 [Saracatinib] + N=C(N)NC(=N)NCCc1ccccc1 [Phenformin] (partner 250 µM)	relative viability	0.388

Pending compound:
Can you share its relative viability? I mean this compound: CN1CCN(CCOc2cc(OC3CCOCC3)c3c(Nc4c(Cl)ccc5c4OCO5)ncnc3c2)CC1 [Saracatinib] + Nc1nc2[nH]cc(CCc3ccc(C(=O)N[C@@H](CCC(=O)O)C(=O)O)cc3)c2c(=O)[nH]1 [Pemetrexed] (partner 0.2 µM)
0.621

---

Tested on: NCI-H2347
TEST: relative viability (nuclei count vs DMSO), 5 days (fraction); higher = more cells survive
EXPERIMENTAL_CONTEXT: first compound 0.8 µM
The label fulfilled is reserved for relative viability strictly under 0.6; not fulfilled covers values equal to or above it.

MOLECULE	DISCRETE_LABEL
Nc1cccc2c1CN(C1CCC(=O)NC1=O)C2=O (stereo unspecified) [Lenalidomide] + CS(=O)(=O)CCNCc1ccc(-c2ccc3ncnc(Nc4ccc(OCc5cccc(F)c5)c(Cl)c4)c3c2)o1 [Lapatinib] (partner 2 µM)	not fulfilled
Nc1cccc2c1CN(C1CCC(=O)NC1=O)C2=O (stereo unspecified) [Lenalidomide] + NC(=O)Nc1cc(-c2cccc(F)c2)sc1C(=O)N[C@H]1CCCNC1 [AZD7762] (partner 0.2 µM)	not fulfilled
Nc1cccc2c1CN(C1CCC(=O)NC1=O)C2=O (stereo unspecified) [Lenalidomide] + Cc1cc(Nc2cc(N3CCN(C)CC3)nc(Sc3ccc(NC(=O)C4CC4)cc3)n2)n[nH]1 [Tozasertib] (partner 0.1 µM)	fulfilled
Nc1cccc2c1CN(C1CCC(=O)NC1=O)C2=O (stereo unspecified) [Lenalidomide] + CCNC(=O)c1noc(-c2cc(C(C)C)c(O)cc2O)c1-c1ccc(CN2CCOCC2)cc1 [Luminespib] (partner 0.01 µM)	not fulfilled

Given the entry Nc1cccc2c1CN(C1CCC(=O)NC1=O)C2=O (stereo unspecified) [Lenalidomide] + CC1(C)CCC(c2ccc(Cl)cc2)=C(CN2CCN(c3ccc(C(=O)NS(=O)(=O)c4ccc(N[C@H](CCN5CCOCC5)CSc5ccccc5)c(S(=O)(=O)C(F)(F)F)c4)cc3)CC2)C1 [Navitoclax] (partner 0.5 µM) , would its reported relative viability be below 0.6?
not fulfilled

---

Tested on: HCC-827
TEST: relative viability (nuclei count vs DMSO), 5 days (fraction); higher = more cells survive
EXPERIMENTAL_CONTEXT: first compound 0.006325 µM
Field: relative viability. Provide a value for each of the compounds that follow.

COMPOUND	relative viability
CCNC(=O)c1noc(-c2cc(C(C)C)c(O)cc2O)c1-c1ccc(CN2CCOCC2)cc1 [Luminespib] + C[C@@H](Oc1cc(-c2cnn(C3CCNCC3)c2)cnc1N)c1c(Cl)ccc(F)c1Cl [Crizotinib] (partner 1 µM)	0.899

Okay, next one:
Requested field: relative viability. Item: CCNC(=O)c1noc(-c2cc(C(C)C)c(O)cc2O)c1-c1ccc(CN2CCOCC2)cc1 [Luminespib] + Cc1nc(NC(=O)N2CCC[C@H]2C(N)=O)sc1-c1ccnc(C(C)(C)C(F)(F)F)c1 [Alpelisib] (partner 2 µM)
0.981

---

System: NCI-H1793
TEST: relative viability (nuclei count vs DMSO), 5 days (fraction); higher = more cells survive
EXPERIMENTAL_CONTEXT: first compound 0.001 µM
READOUT_KIND: relative viability
Answers are plain numbers.

Check out these entries, answers already filled in.
COMPOUND	TESTED_ON	relative viability
Cc1cn(-c2cc(NC(=O)c3ccc(C)c(Nc4nccc(-c5cccnc5)n4)c3)cc(C(F)(F)F)c2)cn1 [Nilotinib] + NC(=O)Nc1cc(-c2cccc(F)c2)sc1C(=O)N[C@H]1CCCNC1 [AZD7762] (partner 0.2 µM)	NCI-H1793	0.388
Cc1cn(-c2cc(NC(=O)c3ccc(C)c(Nc4nccc(-c5cccnc5)n4)c3)cc(C(F)(F)F)c2)cn1 [Nilotinib] + Nc1ncn([C@H]2C[C@H](O)[C@@H](CO)O2)c(=O)n1 [Decitabine] (partner 2 µM)	NCI-H1793	0.49
Cc1cn(-c2cc(NC(=O)c3ccc(C)c(Nc4nccc(-c5cccnc5)n4)c3)cc(C(F)(F)F)c2)cn1 [Nilotinib] + CC(=O)c1c(C)c2cnc(Nc3ccc(N4CCNCC4)cn3)nc2n(C2CCCC2)c1=O [Palbociclib] (partner 0.5 µM)	NCI-H1793	0.332
Cc1cn(-c2cc(NC(=O)c3ccc(C)c(Nc4nccc(-c5cccnc5)n4)c3)cc(C(F)(F)F)c2)cn1 [Nilotinib] + O=C(CCCCCCC(=O)Nc1ccccc1)NO [Vorinostat] (partner 1 µM)	NCI-H1793	0.64

# ---- query compound ----
Fill in: relative viability of Cc1cn(-c2cc(NC(=O)c3ccc(C)c(Nc4nccc(-c5cccnc5)n4)c3)cc(C(F)(F)F)c2)cn1 [Nilotinib] + COc1cccc2cc(-c3nc([C@H]4CC[C@H](C(=O)O)CC4)n4ncnc(N)c34)[nH]c12 [OSI-027] (partner 0.5 µM) is ___
0.269

---

System: SW 1573
TEST: relative viability (nuclei count vs DMSO), 5 days (fraction); higher = more cells survive
EXPERIMENTAL_CONTEXT: first compound 0.06325 µM
Can you tell me relative viability for the items I'm about to list?
Numbers only.

Solved entries (count: 4):
MOLECULE	MEASUREMENT
CCNC(=O)c1noc(-c2cc(C(C)C)c(O)cc2O)c1-c1ccc(CN2CCOCC2)cc1 [Luminespib] + O=C(c1cc(Cc2n[nH]c(=O)c3ccccc23)ccc1F)N1CCN(C(=O)C2CC2)CC1 [Olaparib] (partner 8 µM)	0.101
CCNC(=O)c1noc(-c2cc(C(C)C)c(O)cc2O)c1-c1ccc(CN2CCOCC2)cc1 [Luminespib] + Cc1nc(NC(=O)N2CCC[C@H]2C(N)=O)sc1-c1ccnc(C(C)(C)C(F)(F)F)c1 [Alpelisib] (partner 2 µM)	0.165
CCNC(=O)c1noc(-c2cc(C(C)C)c(O)cc2O)c1-c1ccc(CN2CCOCC2)cc1 [Luminespib] + C[C@@H](Oc1cc(-c2cnn(C3CCNCC3)c2)cnc1N)c1c(Cl)ccc(F)c1Cl [Crizotinib] (partner 1 µM)	0.191
CCNC(=O)c1noc(-c2cc(C(C)C)c(O)cc2O)c1-c1ccc(CN2CCOCC2)cc1 [Luminespib] + CS(=O)(=O)N1CCN(Cc2cc3nc(-c4cccc5[nH]ncc45)nc(N4CCOCC4)c3s2)CC1 [Pictilisib] (partner 1 µM)	0.145

Please find the next molecule below.
Consider the molecule CCNC(=O)c1noc(-c2cc(C(C)C)c(O)cc2O)c1-c1ccc(CN2CCOCC2)cc1 [Luminespib] + COc1cc2c(Oc3ccc(NC(=O)C4(C(=O)Nc5ccc(F)cc5)CC4)cc3F)ccnc2cc1OCCCN1CCOCC1 [Foretinib] (partner 0.25 µM) and give its measured relative viability.
0.148

---

Test system: NCI-H2347
TEST: relative viability (nuclei count vs DMSO), 5 days (fraction); higher = more cells survive
EXPERIMENTAL_CONTEXT: first compound 20 µM
READOUT_KIND: relative viability
Answers are plain numbers.

In the examples that follow, each entry is paired with its recorded relative viability.
MOLECULE	relative viability
Cc1csc(=NC2CCCCC2)n1/N=C/c1ccc(O)c(O)c1O [MIM1] + Nc1ncn([C@H]2C[C@H](O)[C@@H](CO)O2)c(=O)n1 [Decitabine] (partner 2 µM)	0.527
Cc1csc(=NC2CCCCC2)n1/N=C/c1ccc(O)c(O)c1O [MIM1] + CC1(C)CCC(c2ccc(Cl)cc2)=C(CN2CCN(c3ccc(C(=O)NS(=O)(=O)c4ccc(N[C@H](CCN5CCOCC5)CSc5ccccc5)c(S(=O)(=O)C(F)(F)F)c4)cc3)CC2)C1 [Navitoclax] (partner 0.5 µM)	0.408
Cc1csc(=NC2CCCCC2)n1/N=C/c1ccc(O)c(O)c1O [MIM1] + C[C@]1(O)C[C@@H](c2nc(-c3ccc4ccc(-c5ccccc5)nc4c3)c3c(N)nccn32)C1 [Linsitinib] (partner 1 µM)	0.656

Attention now shifts to the item below.
// lookup relative viability for Cc1csc(=NC2CCCCC2)n1/N=C/c1ccc(O)c(O)c1O [MIM1] + CC(=O)Nc1cccc(-n2c(=O)n(C3CC3)c(=O)c3c(Nc4ccc(I)cc4F)n(C)c(=O)c(C)c32)c1 [Trametinib] (partner 0.02 µM)
0.27
